# pIC50 values compiled below
- system-under-test: hDPP-IV (Homo sapiens)
Peptide text beside a SMILES is read from it.
Entry type: numeric. Quantity: pIC50, the -log10 of concentration in molar units.

input: Entry C[C@H](NC(=O)[C@@H](N)Cc1c[nH]c2ccccc12)C(=O)N[C@H](C(=O)O)[C@@H](C)O [WAT] (H-Trp-Ala-Thr-OH) , system hDPP-IV (Homo sapiens): what pIC50 was measured?
output: 3.53

input: Also check N=C(N)NCCC[C@H](NC(=O)[C@@H](N)Cc1c[nH]c2ccccc12)C(=O)NCC(=O)O [WRG] (H-Trp-Arg-Gly-OH)
output: 3.57

input: Also check NC(=O)CC[C@H](NC(=O)[C@@H]1CCCN1C(=O)[C@@H](N)Cc1c[nH]c2ccccc12)C(=O)O [WPQ] (H-Trp-Pro-Gln-OH)
output: 3.71

input: Also check CC(C)[C@H](NC(=O)[C@@H](NC(=O)[C@@H](N)Cc1c[nH]c2ccccc12)C(C)C)C(=O)O [WVV] (H-Trp-Val-Val-OH)
output: 3.56

input: Also check N=C(N)NCCC[C@H](NC(=O)[C@@H](N)Cc1c[nH]c2ccccc12)C(=O)N1CCC[C@H]1C(=O)O [WRP] (H-Trp-Arg-Pro-OH)
output: 3.13

input: Also check C[C@H](NC(=O)[C@@H](N)Cc1c[nH]c2ccccc12)C(=O)NCC(=O)O [WAG] (H-Trp-Ala-Gly-OH)
output: 3.45

input: Also check CC[C@H](C)[C@H](N)C(=O)N1CCC[C@H]1C(=O)N[C@H](C(=O)N1CCC[C@H]1C(=O)N[C@H](C(=O)O)[C@@H](C)CC)[C@@H](C)CC [IPIPI] (H-IPIPI-OH)
output: 4.32

input: Also check C[C@H](NC(=O)[C@@H](N)Cc1c[nH]c2ccccc12)C(=O)N[C@@H](CS)C(=O)O [WAC] (H-Trp-Ala-Cys-OH)
output: 3.55

input: Also check C[C@H](NC(=O)[C@@H](N)Cc1c[nH]c2ccccc12)C(=O)N[C@@H](Cc1c[nH]c2ccccc12)C(=O)O [WAW] (H-Trp-Ala-Trp-OH)
output: 3.98

input: Also check CC(C)[C@H](NC(=O)[C@@H](N)Cc1c[nH]c2ccccc12)C(=O)NCC(=O)O [WVG] (H-Trp-Val-Gly-OH)
output: 3.47

input: Also check CC(C)C[C@H](NC(=O)[C@H](CCCNC(=N)N)NC(=O)[C@@H](N)Cc1c[nH]c2ccccc12)C(=O)O [WRL] (H-Trp-Arg-Leu-OH)
output: 3.82

input: Also check CC(C)C[C@H](NC(=O)[C@H](C)NC(=O)[C@@H](N)Cc1c[nH]c2ccccc12)C(=O)O [WAL] (H-Trp-Ala-Leu-OH)
output: 3.58

input: Also check CC(C)[C@H](NC(=O)[C@@H](N)Cc1c[nH]c2ccccc12)C(=O)N[C@@H](CCCCN)C(=O)O [WVK] (H-Trp-Val-Lys-OH)
output: 3.48

input: Also check C[C@H](NC(=O)[C@@H](N)Cc1c[nH]c2ccccc12)C(=O)N1CCC[C@H]1C(=O)O [WAP] (H-Trp-Ala-Pro-OH)
output: 3.36

input: Also check CC(C)[C@H](N)C(=O)N1CCC[C@H]1C(=O)N[C@H](C(=O)N1CCC[C@H]1C(=O)N[C@@H](CS)C(=O)O)C(C)C [VPVPC] (H-VPVPC-OH)
output: 4.26

input: Also check CC(C)[C@H](NC(=O)[C@@H](N)Cc1c[nH]c2ccccc12)C(=O)N[C@@H](Cc1c[nH]cn1)C(=O)O [WVH] (H-Trp-Val-His-OH)
output: 3.59

input: Also check N=C(N)NCCC[C@H](NC(=O)[C@@H](N)Cc1c[nH]c2ccccc12)C(=O)N[C@@H](CCC(=O)O)C(=O)O [WRE] (H-Trp-Arg-Glu-OH)
output: 3.80

input: Also check C[C@H](NC(=O)[C@@H](N)Cc1c[nH]c2ccccc12)C(=O)N[C@@H](CCCNC(=N)N)C(=O)O [WAR] (H-Trp-Ala-Arg-OH)
output: 3.18

input: Also check C[C@H](NC(=O)[C@@H](N)Cc1c[nH]c2ccccc12)C(=O)N[C@@H](Cc1ccc(O)cc1)C(=O)O [WAY] (H-Trp-Ala-Tyr-OH)
output: 3.93

====

# pIC50 values compiled below
- system-under-test: hDPP-IV (Homo sapiens, UniProt P27487)
- Sequence (P27487 whole entry): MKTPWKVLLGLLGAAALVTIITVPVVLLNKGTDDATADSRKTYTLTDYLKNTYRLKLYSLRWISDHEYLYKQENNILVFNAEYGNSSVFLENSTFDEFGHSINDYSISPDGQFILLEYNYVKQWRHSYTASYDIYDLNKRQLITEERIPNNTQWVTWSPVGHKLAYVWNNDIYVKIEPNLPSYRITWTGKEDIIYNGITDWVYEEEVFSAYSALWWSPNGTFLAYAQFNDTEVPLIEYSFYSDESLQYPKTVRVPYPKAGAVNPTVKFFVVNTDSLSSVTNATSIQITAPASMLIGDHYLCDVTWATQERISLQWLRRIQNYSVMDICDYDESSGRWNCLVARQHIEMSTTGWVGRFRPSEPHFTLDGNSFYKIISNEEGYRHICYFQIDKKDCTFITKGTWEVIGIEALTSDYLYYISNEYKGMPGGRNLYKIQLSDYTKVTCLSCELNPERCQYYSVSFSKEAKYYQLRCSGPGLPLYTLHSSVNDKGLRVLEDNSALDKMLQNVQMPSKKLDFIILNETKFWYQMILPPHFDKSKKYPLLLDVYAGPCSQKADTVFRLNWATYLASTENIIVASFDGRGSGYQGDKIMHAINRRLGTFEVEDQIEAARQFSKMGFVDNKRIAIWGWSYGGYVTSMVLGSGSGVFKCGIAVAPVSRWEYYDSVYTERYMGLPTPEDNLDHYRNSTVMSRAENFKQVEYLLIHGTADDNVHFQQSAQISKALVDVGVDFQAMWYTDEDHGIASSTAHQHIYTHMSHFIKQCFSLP
Peptide text beside a SMILES is read from it.
Entry type: numeric. Quantity: pIC50, the -log10 of concentration in molar units.

Reference set (3 entries):
molecule	measure	assay-result
C[C@H](NC(=O)[C@H](CCCNC(=N)N)NC(=O)[C@@H](N)Cc1c[nH]c2ccccc12)C(=O)O [WRA] (H-Trp-Arg-Ala-OH)	pIC50	3.27
N=C(N)NCCC[C@H](NC(=O)[C@@H](N)Cc1c[nH]c2ccccc12)C(=O)N[C@@H](Cc1ccc(O)cc1)C(=O)O [WRY] (H-Trp-Arg-Tyr-OH)	pIC50	3.53
N=C(N)NCCC[C@H](NC(=O)[C@@H](N)Cc1c[nH]c2ccccc12)C(=O)N[C@@H](CS)C(=O)O [WRC] (H-Trp-Arg-Cys-OH)	pIC50	3.68

input: I am curious: what pIC50 value has been reported for CC(C)[C@H](NC(=O)[C@@H](N)Cc1c[nH]c2ccccc12)C(=O)N[C@@H](Cc1ccccc1)C(=O)O [WVF] (H-Trp-Val-Phe-OH) ?
output: 3.73

input: Also check N[C@@H](Cc1c[nH]c2ccccc12)C(=O)N1CCC[C@H]1C(=O)N[C@@H](Cc1c[nH]c2ccccc12)C(=O)O [WPW] (H-Trp-Pro-Trp-OH)
output: 3.74

input: Also check N=C(N)NCCC[C@H](NC(=O)[C@@H](N)Cc1c[nH]c2ccccc12)C(=O)N[C@@H](CC(N)=O)C(=O)O [WRN] (H-Trp-Arg-Asn-OH)
output: 3.50

====

Peptide text beside a SMILES is read from it.
Read-out record for hDPP-IV (Homo sapiens, UniProt P27487): IC50
Please respond with the number in µM and leave the unit unwritten.

Reference set (5 entries):
molecule	unit-descriptor	assay-result
N[C@@H](Cc1c[nH]c2ccccc12)C(=O)N1CCC[C@H]1C(=O)N[C@@H](CCC(=O)O)C(=O)O [WPE] (H-Trp-Pro-Glu-OH)	µM	353
NC(=O)C[C@H](NC(=O)[C@@H]1CCCN1C(=O)[C@@H](N)Cc1c[nH]c2ccccc12)C(=O)O [WPN] (H-Trp-Pro-Asn-OH)	µM	129
CSCC[C@H](NC(=O)[C@@H](NC(=O)[C@@H](N)Cc1c[nH]c2ccccc12)C(C)C)C(=O)O [WVM] (H-Trp-Val-Met-OH)	µM	317
CC(C)[C@H](NC(=O)[C@@H](N)Cc1c[nH]c2ccccc12)C(=O)N[C@H](C(=O)O)[C@@H](C)O [WVT] (H-Trp-Val-Thr-OH)	µM	336
C[C@H](NC(=O)[C@@H](N)Cc1c[nH]c2ccccc12)C(=O)N[C@@H](CCC(=O)O)C(=O)O [WAE] (H-Trp-Ala-Glu-OH)	µM	462

input: I am curious: what IC50 value has been reported for CC[C@H](C)[C@H](NC(=O)[C@H](CCCNC(=N)N)NC(=O)[C@@H](N)Cc1c[nH]c2ccccc12)C(=O)O [WRI] (H-Trp-Arg-Ile-OH) ?
output: 330

====

- system-under-test: hDPP-IV (Homo sapiens, UniProt P27487)
- experiment-notes: DPP-IV inhibitory assay
- Type: biochemical
Peptide text beside a SMILES is read from it.
measure: IC50 (µM)
Please respond with the number in µM and leave the unit unwritten.

compound	system-under-test	unit-descriptor	IC50
N=C(N)NCCC[C@H](NC(=O)[C@@H]1CCCN1C(=O)[C@@H](N)Cc1c[nH]c2ccccc12)C(=O)O [WPR] (H-Trp-Pro-Arg-OH)	hDPP-IV (Homo sapiens, UniProt P27487)	µM	209
CC(C)[C@H](N)C(=O)N1CCC[C@H]1C(=O)N[C@H](C(=O)N1CCC[C@H]1C(=O)N[C@@H](Cc1c[nH]cn1)C(=O)O)C(C)C [VPVPH] (H-VPVPH-OH)	hDPP-IV (Homo sapiens, UniProt P27487)	µM	51.1

input: I am curious: what IC50 value has been reported for N[C@@H](Cc1c[nH]c2ccccc12)C(=O)N1CCC[C@H]1C(=O)N1CCC[C@H]1C(=O)O [WPP] (H-Trp-Pro-Pro-OH) ?
output: 303

input: Also check CC(C)[C@H](NC(=O)[C@@H](N)Cc1c[nH]c2ccccc12)C(=O)N[C@@H](CCC(=O)O)C(=O)O [WVE] (H-Trp-Val-Glu-OH)
output: 193

input: Also check CC(C)[C@H](NC(=O)[C@@H](N)Cc1c[nH]c2ccccc12)C(=O)N[C@@H](C)C(=O)O [WVA] (H-Trp-Val-Ala-OH)
output: 341

input: Also check CC(C)C[C@H](NC(=O)[C@@H]1CCCN1C(=O)[C@@H](N)Cc1c[nH]c2ccccc12)C(=O)O [WPL] (H-Trp-Pro-Leu-OH)
output: 461

input: Also check CC(C)[C@H](NC(=O)[C@H](C)NC(=O)[C@@H](N)Cc1c[nH]c2ccccc12)C(=O)O [WAV] (H-Trp-Ala-Val-OH)
output: 250

input: Also check C[C@H](NC(=O)[C@@H](N)Cc1c[nH]c2ccccc12)C(=O)N[C@@H](Cc1ccccc1)C(=O)O [WAF] (H-Trp-Ala-Phe-OH)
output: 153

input: Also check N[C@@H](Cc1c[nH]c2ccccc12)C(=O)N1CCC[C@H]1C(=O)N[C@@H](CO)C(=O)O [WPS] (H-Trp-Pro-Ser-OH)
output: 588

input: Also check CC(C)[C@H](NC(=O)[C@H](CCCNC(=N)N)NC(=O)[C@@H](N)Cc1c[nH]c2ccccc12)C(=O)O [WRV] (H-Trp-Arg-Val-OH)
output: 541
